# experimentalSystem: CSF-1R (Homo sapiens (Human), UniProt P07333)
# Sequence (P07333 20-972): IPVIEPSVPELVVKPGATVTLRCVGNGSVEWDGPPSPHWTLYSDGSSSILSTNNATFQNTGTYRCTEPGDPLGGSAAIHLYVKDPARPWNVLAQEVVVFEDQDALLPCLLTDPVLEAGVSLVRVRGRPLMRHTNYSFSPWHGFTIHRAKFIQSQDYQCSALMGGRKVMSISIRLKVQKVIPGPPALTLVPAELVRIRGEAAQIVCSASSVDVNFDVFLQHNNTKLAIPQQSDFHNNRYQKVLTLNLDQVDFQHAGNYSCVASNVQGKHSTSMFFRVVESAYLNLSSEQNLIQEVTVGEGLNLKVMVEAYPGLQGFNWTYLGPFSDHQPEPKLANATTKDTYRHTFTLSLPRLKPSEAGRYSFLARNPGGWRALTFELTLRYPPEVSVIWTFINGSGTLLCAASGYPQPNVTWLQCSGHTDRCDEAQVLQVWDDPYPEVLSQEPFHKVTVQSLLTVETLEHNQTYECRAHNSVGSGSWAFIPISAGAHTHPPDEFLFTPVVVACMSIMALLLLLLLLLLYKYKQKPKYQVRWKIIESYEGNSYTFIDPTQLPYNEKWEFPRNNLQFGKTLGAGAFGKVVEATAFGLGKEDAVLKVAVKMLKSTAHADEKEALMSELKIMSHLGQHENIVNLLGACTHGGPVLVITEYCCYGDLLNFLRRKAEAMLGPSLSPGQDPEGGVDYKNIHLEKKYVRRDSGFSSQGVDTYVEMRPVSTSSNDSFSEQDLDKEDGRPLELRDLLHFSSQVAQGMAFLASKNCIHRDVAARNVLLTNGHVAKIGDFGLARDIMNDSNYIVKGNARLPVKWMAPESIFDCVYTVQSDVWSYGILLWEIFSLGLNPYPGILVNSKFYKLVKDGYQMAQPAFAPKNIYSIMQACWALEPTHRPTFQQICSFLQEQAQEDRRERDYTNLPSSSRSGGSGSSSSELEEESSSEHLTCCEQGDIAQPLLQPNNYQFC
# assayOverview: Biochemical HTRF kinase assay, CSF-1R;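 note: enzyme incubated with inhibitor plus a substrate and ATP mix for one hour at room temperature before HTRF detection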
# conditionLabel: Table 3; recombinant human CSF-1R
Listing of entries alongside the reported IC50.
Express the reported value numerically, then name its unit.

Consider the worked cases shown below.
| compound | IC50 |
| --- | --- |
| COc1cnc2c(Cc3cnc(OCc4cc5n(n4)C[C@@H](OC)C5)c(OC)c3)ccnc2c1 [Example 121] | 19.9 nM |
| COc1cnc2c(Cc3cnc(OCc4ccc(OC(F)F)cn4)c(OC)c3)ccnc2c1 [Example 56] | 2.2 nM |
| COc1cnc2c(Cc3cnc(OCc4cc(C(C)C)no4)c(OC)c3)ccnc2c1 [Example 83] | 1.2 nM |
| COc1ccc(COc2ncc(Cc3ccnc4cccnc34)cc2OC)nc1 [Example 15] | 9.8 nM |
| COc1cnc2c(Cc3cnc(OCc4cc5n(n4)CCOC5)c(OC)c3)ccnc2c1 [Example 73] | 3.3 nM |

Query string: Return reported IC50; argument: COc1ccc(COc2ncc(Cc3ccnc4cc(N5CCN(C)CC5)cnc34)cc2OC)nc1 [Example 116]
Result string: 3 nM

Query string: Return reported IC50; argument: COc1cnc2c(Cc3cnc(OCc4cc5n(n4)CC4CC54)c(OC)c3)ccnc2c1 (stereo not shown) [Example 101]
Result string: 1.9 nM

###

# experimentalSystem: UniProtKB P09619
# Sequence (P09619 33-1106): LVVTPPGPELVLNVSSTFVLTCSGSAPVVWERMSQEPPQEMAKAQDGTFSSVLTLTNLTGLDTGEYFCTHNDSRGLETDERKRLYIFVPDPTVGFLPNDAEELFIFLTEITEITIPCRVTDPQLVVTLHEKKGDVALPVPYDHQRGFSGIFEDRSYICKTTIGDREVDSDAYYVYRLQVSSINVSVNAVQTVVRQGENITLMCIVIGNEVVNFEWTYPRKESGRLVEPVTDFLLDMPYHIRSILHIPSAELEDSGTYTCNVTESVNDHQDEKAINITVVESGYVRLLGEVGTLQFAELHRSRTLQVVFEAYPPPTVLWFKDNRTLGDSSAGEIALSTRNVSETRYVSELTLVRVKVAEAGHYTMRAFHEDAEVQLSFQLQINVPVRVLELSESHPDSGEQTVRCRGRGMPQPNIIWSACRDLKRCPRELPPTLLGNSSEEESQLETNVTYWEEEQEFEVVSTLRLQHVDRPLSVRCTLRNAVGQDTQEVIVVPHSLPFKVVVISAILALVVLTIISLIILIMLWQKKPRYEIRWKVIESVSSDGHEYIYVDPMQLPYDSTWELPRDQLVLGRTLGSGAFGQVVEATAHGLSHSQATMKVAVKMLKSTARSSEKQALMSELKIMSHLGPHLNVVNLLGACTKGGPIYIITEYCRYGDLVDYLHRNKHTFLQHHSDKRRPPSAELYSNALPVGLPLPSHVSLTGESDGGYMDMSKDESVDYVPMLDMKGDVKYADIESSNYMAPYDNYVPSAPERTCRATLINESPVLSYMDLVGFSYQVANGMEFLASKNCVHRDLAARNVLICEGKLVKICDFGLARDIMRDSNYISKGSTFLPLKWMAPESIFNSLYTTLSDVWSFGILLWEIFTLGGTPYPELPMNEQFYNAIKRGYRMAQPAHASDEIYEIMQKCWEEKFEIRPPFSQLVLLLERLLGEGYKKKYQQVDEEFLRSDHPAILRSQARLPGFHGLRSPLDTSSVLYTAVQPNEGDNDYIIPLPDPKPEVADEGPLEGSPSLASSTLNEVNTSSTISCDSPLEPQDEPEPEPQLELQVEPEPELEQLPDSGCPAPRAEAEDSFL
# assayOverview: Biochemical HTRF kinase assay, PDGFRβ;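 note: kinase reaction with substrate/ATP mix run 1 h at room temperature in 384-well format, HTRF signal detection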
# conditionLabel: recombinant human protein; read-out: PDGFR-1β IC50
Listing of entries alongside the reported pIC50.
Reminder that pIC50 means the negative base-10 logarithm of the concentration expressed in mol/L.

| compound | pIC50 |
| --- | --- |
| COc1cnc2c(Cc3cnc(OCc4ccc(C5CC5)cn4)c(OC)c3)ccnc2c1 [Example 59] | 6.46 |
| COc1ccc(COc2ncc(Cc3ccnc4cc(-c5ccn(C)n5)cnc34)cc2OC)nc1 [Example 134] | 6.40 |
| [2H]C([2H])([2H])Oc1cnc2c(Cc3cnc(OCc4ccc(OC)cn4)c(OC)c3)ccnc2c1 [Example 79] | 6.17 |
| COc1cnc2c(Cc3cnc(OCc4ccc(C)cn4)c(OC)c3)ccnc2c1 [Example 55] | 6.49 |
| COc1cnc2c(Cc3cnc(OCc4ccc([C@H]5CC5(F)F)cn4)c(OC)c3)ccnc2c1 (stereo in doubt) [Example 80] | 7.31 |
| COc1cnc2c(Cc3cnc(OCc4cnc5c(c4)OCCN5C)c(OC)c3)ccnc2c1 [Example 87] | 6.68 |
| COc1cnc2c(Cc3cnc(OCc4ccc(C5CC5(F)F)cn4)c(OC)c3)ccnc2c1 (stereo not shown) [Example 66] | 7.13 |
| COc1cnc2c(Cc3cnc(OCc4ccc(OC(F)F)cn4)c(OC)c3)ccnc2c1 [Example 56] | 6.51 |

Query string: Return reported pIC50; argument: COc1ccc(COc2ncc(Cc3ccnc4cc(N(C)C)cnc34)cc2OC)nc1 [Example 100]
Result string: 6.42

Query string: Return reported pIC50; argument: COc1cnc2c(Cc3cnc(OCc4cc5n(n4)C[C@H](F)C5)c(OC)c3)ccnc2c1 [Example 112]
Result string: 6.06

Query string: Return reported pIC50; argument: COc1cnc2c(Cc3cnc(OCc4ccc([C@H]5CC5(F)F)cn4)c(OC)c3)ccnc2c1 (stereo in doubt) [Example 81]
Result string: 6.43
